Numbers sourced from the supplement of paper PMC3545927.

- assay.system: furin, P09958;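 further: purified furin at 1:10 enzyme:substrate in 50 mM HEPES pH 7.5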
- Sequence (P09958 whole entry): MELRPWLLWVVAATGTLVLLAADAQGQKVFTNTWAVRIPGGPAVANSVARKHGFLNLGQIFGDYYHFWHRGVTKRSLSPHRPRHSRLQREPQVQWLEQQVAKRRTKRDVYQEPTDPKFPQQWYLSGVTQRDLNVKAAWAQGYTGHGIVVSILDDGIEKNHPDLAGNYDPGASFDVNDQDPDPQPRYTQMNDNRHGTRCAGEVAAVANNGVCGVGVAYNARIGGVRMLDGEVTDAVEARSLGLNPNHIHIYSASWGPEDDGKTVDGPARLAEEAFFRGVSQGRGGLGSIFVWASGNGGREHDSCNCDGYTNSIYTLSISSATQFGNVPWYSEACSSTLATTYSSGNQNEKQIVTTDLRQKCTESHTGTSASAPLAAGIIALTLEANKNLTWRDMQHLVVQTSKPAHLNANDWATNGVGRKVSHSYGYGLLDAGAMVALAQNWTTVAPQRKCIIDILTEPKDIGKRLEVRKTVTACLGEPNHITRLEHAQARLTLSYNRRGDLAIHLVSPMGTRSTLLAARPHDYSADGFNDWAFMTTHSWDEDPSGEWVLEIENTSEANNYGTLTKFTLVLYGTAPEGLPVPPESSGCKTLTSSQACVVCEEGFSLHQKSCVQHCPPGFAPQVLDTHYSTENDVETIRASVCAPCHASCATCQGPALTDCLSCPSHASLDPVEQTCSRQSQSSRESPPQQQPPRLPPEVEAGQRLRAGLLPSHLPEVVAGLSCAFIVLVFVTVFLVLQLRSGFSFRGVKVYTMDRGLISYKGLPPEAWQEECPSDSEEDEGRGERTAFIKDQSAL
- method.summary: furin cleavage Z-score vs untreated control; higher = more cleavage, active = 3.5 or more, inactive = 1 or less, 8 variable residues between constant flanks
- test.parameters: 15 min
The other results are listed elsewhere or left out. The true hit rate is not given.
The reply should be one of these categories: active, inactive

{"construct.sequence": "CAGDRVYIHPAGNASASA [EK2]", "category.label": "inactive"}
{"construct.sequence": "CARAPRSKVPAGNASASA [FS-2251]", "category.label": "inactive"}
{"construct.sequence": "CANIEEVALSAGNASASA [HC841]", "category.label": "inactive"}
{"construct.sequence": "CARSRRSAFHAGNASASA [FS-2819]", "category.label": "active"}
{"construct.sequence": "CARSLRSQIRAGNASASA [FS-2309]", "category.label": "inactive"}

From here, focus on the item given below.
Assay outcome for CARSGRSIINAGNASASA [FS-3080] : what was it?
inactive
